The measurements presented in this section are drawn from patent US20100234450.

# experimentalSystem: PSMA (prostate-specific membrane antigen) (Homo sapiens, UniProt Q04609 Q04609:1-750)
# Sequence (Q04609 whole entry, one chain of several): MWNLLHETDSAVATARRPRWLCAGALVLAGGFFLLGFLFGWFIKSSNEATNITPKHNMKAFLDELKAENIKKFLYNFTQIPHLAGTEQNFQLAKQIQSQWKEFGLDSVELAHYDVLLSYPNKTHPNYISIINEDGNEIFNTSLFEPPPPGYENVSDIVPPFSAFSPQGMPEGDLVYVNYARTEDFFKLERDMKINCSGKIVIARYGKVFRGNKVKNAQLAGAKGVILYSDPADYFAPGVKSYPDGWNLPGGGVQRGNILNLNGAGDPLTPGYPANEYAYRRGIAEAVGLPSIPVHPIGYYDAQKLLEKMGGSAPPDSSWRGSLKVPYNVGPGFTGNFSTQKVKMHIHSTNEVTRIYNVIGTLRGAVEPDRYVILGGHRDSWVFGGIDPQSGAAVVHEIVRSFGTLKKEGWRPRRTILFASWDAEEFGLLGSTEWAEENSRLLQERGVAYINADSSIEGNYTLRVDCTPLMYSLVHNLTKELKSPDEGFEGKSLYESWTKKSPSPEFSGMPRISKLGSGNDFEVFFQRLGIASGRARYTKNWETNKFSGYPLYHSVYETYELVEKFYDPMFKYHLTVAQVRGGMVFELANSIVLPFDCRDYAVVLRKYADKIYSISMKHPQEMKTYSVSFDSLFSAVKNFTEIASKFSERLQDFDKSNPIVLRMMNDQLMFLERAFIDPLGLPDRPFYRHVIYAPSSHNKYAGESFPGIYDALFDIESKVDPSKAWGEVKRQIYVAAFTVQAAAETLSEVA
# experimentalDetails: cell binding to PSMA-positive 22Rv1(1.7) cells; Bmax much lower on PSMA-negative 22Rv1(wmr) cells
# conditionNotes: tags: none; endogenous on 22Rv1(1.7) and LNCaP prostate cancer cells; chain copies: 2; label: 111In
metric: Kd (nM)
State the answer as a number, implicitly in nM.

Tell us which Kd value is on record for GGGAGGACGAUGCGGAUCAGCCAUGUUUACGUCACUCCU (ssRNA, 5'-DOTA chelator via linker) [111In-DOTA-A10-3.2] 119
